Target: T1, neuropeptide Y2 receptor, P49146
T1 chain: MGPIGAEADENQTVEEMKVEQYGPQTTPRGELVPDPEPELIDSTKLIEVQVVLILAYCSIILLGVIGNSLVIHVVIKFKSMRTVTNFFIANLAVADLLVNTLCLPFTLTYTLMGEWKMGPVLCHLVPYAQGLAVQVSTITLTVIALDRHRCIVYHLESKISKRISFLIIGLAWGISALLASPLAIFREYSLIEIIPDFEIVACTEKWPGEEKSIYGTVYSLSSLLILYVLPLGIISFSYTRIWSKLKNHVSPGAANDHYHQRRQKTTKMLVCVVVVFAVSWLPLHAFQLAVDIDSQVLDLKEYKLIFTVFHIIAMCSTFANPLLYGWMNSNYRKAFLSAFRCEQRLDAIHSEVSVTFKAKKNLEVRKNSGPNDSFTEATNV
Test: radioligand competition, [125I]-hPYY, SK-N-BE membranes
Collected Y2RBA values appear next to each entry.
Answer format: numeric, nM implied, no suffix.

Here is how some binders turned out for Y2RBA.
Ask | Looking for the measured Y2RBA of APLEPVYPGDNATPEQMNKYYASLRHYLNLVTRQRY (modifications not checked) [SEQ ID NO 306] , can you help?
Reply | 0.16

Ask | Looking for the measured Y2RBA of YPIKPEAPGEDASPEELNQYAADLRRYINMLTRQRY (modifications not checked) [SEQ ID NO 316] , can you help?
Reply | 0.63

Ask | Looking for the measured Y2RBA of YPIKPEAPGEDASPEELNQYAASLRRYINMLTRQRY (modifications not checked) [SEQ ID NO 317] , can you help?
Reply | 0.097

Ask | Looking for the measured Y2RBA of APLEPVYPGDNASPEELNRYYASLRHYLNLVTRQRY (modifications not checked) [SEQ ID NO 297] , can you help?
Reply | 0.32

Further cases:
Ask | Looking for the measured Y2RBA of YPIKPEAPGEDASPQELAQYAADLRRYINMLTRQRY (modifications not checked) [SEQ ID NO 341] , can you help?
Reply | 0.15
